Think of 200 °C as a floor: if melting point stands on it or above, it is 1.0; beneath it, 0.0.

Here's what some known entries look like.
compound | class.assignment
C=CCOC(=S)NC[C@H]1CN(c2ccc(N3CCOC3=O)cc2)C(=O)O1 [Example 137] | 0.0
O=C1OCCN1c1ccc(N2C[C@H](CNC(=S)NCc3ccccc3)OC2=O)cc1 [Example 185] | 0.0
COC(=S)NC[C@H]1CN(c2ccc(N3CC(=O)N(CO)C3)c(F)c2)C(=O)O1 [Example 155] | 0.0

Q: Decide: is the reported value of melting point for CC(=O)NC[C@H]1CN(c2ccc(-n3c(=O)oc4cc(C)ccc43)c(F)c2)C(=O)O1 [Example 79] equal to or greater than 200 °C?
A: 1.0

Q: Decide: is the reported value of melting point for O=C1OCCN1c1ccc(N2C[C@H](CNC(=S)OCCO)OC2=O)cc1 [Example 135] equal to or greater than 200 °C?
A: 0.0

Q: Decide: is the reported value of melting point for C=CCNC(=S)NC[C@H]1CN(c2ccc(N3CCOC3=O)cc2)C(=O)O1 [Example 184] equal to or greater than 200 °C?
A: 0.0

Q: Decide: is the reported value of melting point for CCOC(=S)NC[C@H]1CN(c2ccc(N3CC(=O)N(Cc4ccccc4)C3)c(F)c2)C(=O)O1 [Example 180] equal to or greater than 200 °C?
A: 0.0

Q: Decide: is the reported value of melting point for COC(=O)NC[C@H]1CN(c2ccc(N3CCOC3=O)c(C(F)(F)F)c2)C(=O)O1 [Example 110] equal to or greater than 200 °C?
A: 0.0

Q: Decide: is the reported value of melting point for COC(=S)NC[C@H]1CN(c2ccc(N3CCOC3=O)c(C(F)(F)F)c2)C(=O)O1 [Example 128] equal to or greater than 200 °C?
A: 0.0

Q: Decide: is the reported value of melting point for CCCCC(=O)NC[C@H]1CN(c2ccc(N3CCOC3=O)c(F)c2)C(=O)O1 [Example 69] equal to or greater than 200 °C?
A: 0.0

Q: Decide: is the reported value of melting point for CCCC(=O)NC[C@H]1CN(c2ccc(N3CCOC3=O)c(F)c2)C(=O)O1 [Example 68] equal to or greater than 200 °C?
A: 1.0

Q: Decide: is the reported value of melting point for CCC(=O)NC[C@H]1CN(c2cc(F)c(N3CCOC3=O)c(F)c2)C(=O)O1 [Example 87] equal to or greater than 200 °C?
A: 1.0

Q: Decide: is the reported value of melting point for COC(=S)NC[C@H]1CN(c2cc(F)c(N3CCOC3=O)c(F)c2)C(=O)O1 [Example 130] equal to or greater than 200 °C?
A: 0.0

Q: Decide: is the reported value of melting point for O=C1OCCN1c1ccc(N2C[C@H](CNC(=S)NCCO)OC2=O)cc1 [Example 189] equal to or greater than 200 °C?
A: 0.0

Q: Decide: is the reported value of melting point for C=CCN1CN(c2ccc(N3C[C@H](CNC(=S)OC)OC3=O)cc2F)CC1=O [Example 161] equal to or greater than 200 °C?
A: 0.0

Q: Decide: is the reported value of melting point for O=C1O[C@@H](CNC(=S)CC(F)(F)F)CN1c1ccc(N2CCOC2=O)c(F)c1 [Example 99] equal to or greater than 200 °C?
A: 0.0

Q: Decide: is the reported value of melting point for O=C1OCCN1c1ccc(N2C[C@H](CNC(=S)N3CCC[C@H]3CO)OC2=O)cc1 [Example 182] equal to or greater than 200 °C?
A: 0.0

Q: Decide: is the reported value of melting point for O=C1OCCN1c1ccc(N2C[C@H](CNC(=S)Nc3ccccn3)OC2=O)cc1 [Example 191] equal to or greater than 200 °C?
A: 0.0

Q: Decide: is the reported value of melting point for COC(=S)NC[C@H]1CN(c2ccc(N3CCN(c4ccc(F)cc4)C3=O)c(F)c2)C(=O)O1 [Example 149] equal to or greater than 200 °C?
A: 1.0

* * *

// reported MIC per item
- Tested on: Staphylococcus aureus 019 MRSA (ATCC 33591)
In your response, put the unit directly after the numeric value.

Sample records with MIC:
smiles.entry | MIC
CC(C)OC(=S)NC[C@H]1CN(c2cc(F)c(N3CNC(=O)C3)c(F)c2)C(=O)O1 | 2 µg/mL
CCCOC(=S)NC[C@H]1CN(c2cc(F)c(N3CNC(=O)C3)c(F)c2)C(=O)O1 | 1 µg/mL

Q: Query: MIC; subject: CCOC(=S)NC[C@H]1CN(c2cc(F)c(N3CNC(=O)C3)c(F)c2)C(=O)O1
A: 0.5 µg/mL

* * *

Think of 200 °C as a floor: if melting point stands on it or above, it is true; beneath it, false.

Q: Decide: is the reported value of melting point for CSC(=S)NC[C@H]1CN(c2ccc(N3CCOC3=O)cc2)C(=O)O1 equal to or greater than 200 °C?
A: false

Q: Decide: is the reported value of melting point for COC(=O)NC[C@H]1CN(c2ccc(N3CCOC3=O)c(F)c2)C(=O)O1 equal to or greater than 200 °C?
A: false

Q: Decide: is the reported value of melting point for O=C1O[C@@H](CNC(=S)OC(=O)C(F)(F)F)CN1c1ccc(N2CCOC2=O)c(F)c1 equal to or greater than 200 °C?
A: false

Q: Decide: is the reported value of melting point for CC(=S)NC[C@H]1CN(c2cc(F)c(N3CCOC3=O)c(F)c2)C(=O)O1 equal to or greater than 200 °C?
A: false

Q: Decide: is the reported value of melting point for CCN(CC)C(=S)NC[C@H]1CN(c2ccc(N3CCOC3=O)cc2)C(=O)O1 equal to or greater than 200 °C?
A: false

* * *

// reported melting point per item
Give just the number in °C; leave the unit off.

Sample records with melting point:
smiles.entry | reported.endpoint | endpoint.result
COC(=O)NC[C@H]1CN(c2ccc(N3CCOC3=O)cc2)C(=O)O1 | melting point | 195
COC(=S)NC[C@H]1CN(c2ccc(N3CC(=S)N(C)C3)c(F)c2)C(=O)O1 | melting point | 195
CC(=O)NC[C@H]1CN(c2ccc(-n3c(=O)oc4ccc(C)cc43)c(F)c2)C(=O)O1 | melting point | 202
CCCCN1CN(c2ccc(N3C[C@H](CNC(=S)OC)OC3=O)cc2F)CC1=O | melting point | 122
CC(C)OC(=S)NC[C@H]1CN(c2ccc(N3CCOC3=O)cc2)C(=O)O1 | melting point | 140

Q: Query: melting point; subject: CC(=O)NC[C@H]1CN(c2ccc(N3CCSC3=S)c(F)c2)C(=O)O1
A: 220

Q: Query: melting point; subject: CCOC(=S)NC[C@H]1CN(c2ccc(N3CCN(C)C3=S)c(F)c2)C(=O)O1
A: 197

* * *

// reported melting point per item
Give just the number in °C; leave the unit off.

smiles.entry | melting point (°C)
COC(=S)NC[C@H]1CN(c2ccc(N3CC(=O)N(Cc4ccccc4)C3)c(F)c2)C(=O)O1 | 176
CC(=O)NC[C@H]1CN(c2ccc(N3CCN(c4ccc(F)cc4)C3=O)c(F)c2)C(=O)O1 | 194
CC(=O)NC[C@H]1CN(c2ccc(N3CCN(Cc4ccccc4)C3=O)cc2)C(=O)O1 | 204
CC(=O)NC[C@H]1CN(c2ccc(N3CCN(C)C3=O)cc2)C(=O)O1 | 217
O=C1OCCN1c1ccc(N2C[C@H](CNC(=S)OC3CCCCC3)OC2=O)cc1 | 153
CC(=S)NC[C@H]1CN(c2ccc(N3CCOC3=O)c(F)c2)C(=O)O1 | 171

Attention now turns to another entry.
Q: Query: melting point; subject: CCOC(=S)NC[C@H]1CN(c2ccc(N3CCOC3=O)c(C(F)(F)F)c2)C(=O)O1
A: 157

* * *

// reported melting point per item
Give just the number in °C; leave the unit off.

Sample records with melting point:
smiles.entry | melting point / °C
CCOC(=S)NC[C@H]1CN(c2ccc(N3CCOC3=O)cc2)C(=O)O1 | 168
CCOC(=S)NC[C@H]1CN(c2ccc(N3CCN(Cc4ccccc4)C3=O)cc2)C(=O)O1 | 160
CC(=O)NC[C@H]1CN(c2ccc(N3CCOC3=O)cc2)C(=O)O1 | 231
CCCCCCC(=O)NC[C@H]1CN(c2ccc(N3CCOC3=O)c(F)c2)C(=O)O1 | 131

Q: Query: melting point; subject: CC(=S)NC[C@H]1CN(c2ccc(N3CCOC3=O)c(C(F)(F)F)c2)C(=O)O1
A: 154

* * *

// reported melting point per item
Give just the number in °C; leave the unit off.

Sample records with melting point:
compound | display.unit | melting point
CSC(=S)NC[C@H]1CN(c2cc(F)c(N3CCOC3=O)c(F)c2)C(=O)O1 [Example 115] | °C | 147
CNC(=S)NC[C@H]1CN(c2cc(F)c(N3CCOC3=O)c(F)c2)C(=O)O1 [Example 195] | °C | 113
NC[C@H]1CN(c2ccc(N3CCOC3=O)c(F)c2)C(=O)O1 [Example 53] | °C | 147

Q: Query: melting point; subject: CCC(=O)NC[C@H]1CN(c2ccc(N3CCOC3=O)c(F)c2)C(=O)O1 [Example 67]
A: 203

Q: Query: melting point; subject: COC(=O)NC[C@H]1CN(c2ccc(N3CC(=O)N(C)C3)c(F)c2)C(=O)O1 [Example 113]
A: 226

Q: Query: melting point; subject: O=C1O[C@@H](CNC(=O)C(F)(F)F)CN1c1ccc(N2CCOC2=O)c(F)c1 [Example 72]
A: 194

Q: Query: melting point; subject: CCOC(=S)NC[C@H]1CN(c2ccc(N3CCOC3=O)c(F)c2)C(=O)O1 [Example 120]
A: 208
